Answer each item with its documented CHO Human INSR.
Biological target: T1, human insulin receptor (INSR) on CHOK1 cells (human, UniProt P06213 28-1382)
T1 construct: whole, on cells; CHOK1 cells over-expressing human INSR; also called human INSR; hINSR
Test: binding to CHO cells expressing human INSR; 1st column headed CHO Human INSR; quantity and unit not printed [cont'd]
Numbers only.

For the 2 binders below, give their CHO Human INSR values.
1. RHF.15.05896.006 (Fab, V domains shown, Untagged Fab) VH: EVQLVETGGGVVQPGRSLRLSCAASGFKFSSYAMHWVRQAPGKGLEWVAVISYSGDNKYYADSVKGRFTISRDNSKNTLYLQMNSLRAEDTAVYYCARHEWGFGFDRWGQGTTVTVSS VL: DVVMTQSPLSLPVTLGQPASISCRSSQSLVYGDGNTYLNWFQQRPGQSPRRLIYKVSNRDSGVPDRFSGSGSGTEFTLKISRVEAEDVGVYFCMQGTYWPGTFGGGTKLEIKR
2. RHF.15.05896.020 (Fab, V domains shown, Untagged Fab) VH: EVQLVETGGGVVQPGRSLRLSCAASGFKFSSYAMHWVRQAPGKGLEWVAVISWSGSNKYYADSVKGRFTISRDNSKNTLYLQMNSLRAEDTAVYYCARHEWGFGFDEWGQGTTVTVSS VL: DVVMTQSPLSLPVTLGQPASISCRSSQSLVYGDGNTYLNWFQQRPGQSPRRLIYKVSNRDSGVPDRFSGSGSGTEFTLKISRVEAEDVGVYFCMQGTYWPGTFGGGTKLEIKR

[2.95, 1.96]
